Measured T/C, listed per entry for reference.
# System: L1210 leukemia ip in BDF1 mice, survival T/C
# PROTOCOL TEXT: NCI In Vivo Anticancer Drug Screen. Data for tumor model L1210 Leukemia (intraperitoneal) in B6D2F1 (BDF1) mice
# CONDITION DETAILS: endpoint: mean survival time; dose: 200.0 mg/kg/injection; schedule: Q04DX002 (ip); vehicle: Klucel (hydroxypropylcellulose) (HPC); higher = longer survival
Toxic doses and inconclusive results are not listed.
ATTRIBUTE MEASURED: T/C

In [3]: df
Out[3]:
                                    compound   measured_result
 0   CN(C(=O)c1ccc([N+](=O)[O-])cc1)c1ccccc1   90 % of control
 1           CCCN(CCC#N)C(=S)Nc1ccc(C)c(C)c1   97 % of control
 2          Nc1c([N+](=O)[O-])cc(Cl)c(Cl)c1F   96 % of control
 3   COc1ccc(OC)c(NCCCN2C(=O)c3ccccc3C2=O)c1  102 % of control
 4             NOC(=O)c1ccc([N+](=O)[O-])cc1   94 % of control
 5                  CC(=O)OCCc1ccc2c(c1)OCO2  112 % of control
 6         COc1ccc(OC)c2[nH]c(-c3ccccc3)cc12  105 % of control
 7  CN/C([S-])=N/N=C/C(=N/N=C(\[S-])NC)c1ccc(-c2ccccc2)cc1.[Cu+2]   95 % of control
 8                O=C(O)COc1ccc(Cl)c2ccccc12  100 % of control
 9               O=C1OCC/C1=C/OC(=O)c1ccccc1   87 % of control
10  CCCCCCCCCCCCCCCCCC(=O)Oc1c(C(C)(C)C)cc([N+](=O)[O-])c(C)c1[N+](=O)[O-]   92 % of control
11              CC(C)c1ccccc1OC(=O)NC1CCCCC1  110 % of control
12  CC(O)c1cccc(NC(=O)Nc2cccc(C(F)(F)F)c2)c1 (stereo not given)  108 % of control
13           CN(C)C(=O)C(=O)c1c[nH]c2ccccc12  109 % of control
14       O=C(c1ccccc1)C(O)(c1ccccc1)c1ccccc1  107 % of control
